Experiment: yeast display, Sf9 membrane polyspecificity reagent, FACS + sequencing; frameworks hold sequencing errors

Sequence | polyreactivity (PSR sort gate)
QVQLVESGGGLVQAGGSLRLSCAASGITFDHYAMGWYRQAPGKERELVAAITSGGNTNYADSVKGRFTISRDNAKNTVYLQMNSLKPEDTAVYYCNARYDVWYYYWGQGTQVTVSS | high polyreactivity
QVQLVESGGGLVQAGGSLRLSCAASGITFYLNAMVWYRQAPGKERELVADITVSGGSTYYADSVKGRFTISRDYAKNTVYLQMNRLKPEDTAVYYCAADLTISYSQEYYYWGQGTQVTVSS | low polyreactivity
QVQLDESGGGLVQAGGSLRLSCADSGRIFDRNALGWYRQAPGKESELVAAISSRGTSTYYADSVKGRFTISRDNAKNTVYLQMNSLKPEDTAVYYCAARPRYASDEFGYWGQGTQVTVSS | low polyreactivity
QVQLVESGGGLVQAGGSLRLSCAASGITFGGYAMGWYRQAPGKERELVASIRSGSSTNYADSVKGRFTISRDNAKNTVYLQMNSLKPEDTAVYYCAARNFRNRYGYWGQGTQVTVSS | high polyreactivity
QVQLVESGGGLVQAGGSLRLSCAASGSTIVRYAMGWYRQAPGKERELVAAISGGGSTSYADSVKGRFTISRDNAKNTVYLQMNSLKPEDTAVYYCAKAGYRSEFEYWGQGTQVTVSS | low polyreactivity
QVQLVESGGGLVQAGGSLRLSCAASGYIFQTYAMGWYRQAPGKEREFVAAITSGAGRTSYADSVKGRFTISRDNAKNTVYLQMNSLKPEDTAVYYCAARWRYQLSGSRLSYGKYDYWGQGTQVTVSS | high polyreactivity
QVQLVESGGGLVQAGGSLRLTCAASGIIFSGYAMGWYRQAPGTERELVASIRSGSNTYYADSVKGRITISRDNAKYTVYFQMNSLKPEDTGVYYCAADIEYSYFQVFSYNYEYWGQGSQVTVSS | low polyreactivity
QVQLVESGGGLVQAGGSLRLSCAASGFTFYSYAMGWYRQAPGKERELVAAITDRGGSTYYADSVKGRFTISRDNAKNTVYLQMNSLKPEDTAVYYCAAASGIRSYSYGWLGREYYWGQGTQVTVSS | high polyreactivity
QVQLVESGGGLVQAGVSLRLSCAASGITFARYTMGWYRQAPGKERELVAAINTSGGSTRYADSVKGRFTISRDNAKNTVYLQMNSLKPEDTAVYYCAARRKHSLFGKRYYWGQGTQVTVSS | high polyreactivity
QVQLVESGGGLFQAGGSLRLSCAASGRTFDVYDMGWYRQAPGKERELVAAITWSGGSTYYADSVKGRFTISRDNAKNTVYLQMNSLKPEDTAVYYCAAGYYYFWTYDYWGQGTQVTVSS | low polyreactivity
QVHLVESGGGLVQAGGSLRLSCAASGSIFGPYAMGWYRQAPGKERELVAAITYRGDSTYYADSVKGRFTISRDYAKNTVYLQINSLKPEDTAVYYCAADYFYANYDYWGQGTQVTVSS | high polyreactivity
QVQLVDSGGGLVQAGGNLRLSCAPSGYTFGKYAMGWYRQAPGKERELVAGISSRGGSTYYADSVKGRFTISRDNAKNTVYFQMNSLKPEDTAVYYCAAVAYTGGPRKLGFYYWGQGTQVTVSS | high polyreactivity
QVQLVESGGGLVQAGGSLRLSCAASGGTFPWYSMGWYRPATGKEREMVAGITWGGVSTYADSVKGRFTISRDNAKNTVYLQMNSLKQEDTAVYYCASRTSFTRGPWYKFYYWGQGTQVTVSS | high polyreactivity
QVQLVESGGGLVQAGGSLRLSCAASGSIFDVNAMGWYRQAPGKERELVAAISQRGTRTYYADSVKGRFTISRENAKNTVYLQMNSLKPEDTAVYYCNRGGWRQYDSWGQGTQVTVSS | high polyreactivity
QVQLVESGGGLVQAGGSLRLSCAASGSTFNHYAMGWYRQAPGKERELVAAITKSGGSTYADSVKGRFTISRDNAKNTVYIQMNSLKPEDTAVYYCAAGRRKYGTKGRGDYWGQGTQVTVSS | low polyreactivity
QVQLVESGGGLVQAGGSLRLSCAAYGSIFRWYAMGWYRQAPGKERELVAAISTSGGNKYYADSVKGRFTISRDNAKNTVYLQMNSLKPEDTAVYYCNALWYRSLSYRYDYWGQGTQVTVSS | high polyreactivity
QVQLVESGGGLVQAGGSLSLSCSASGSIFAGYARGWYRQAPGKERELVAAISVSGGGTYYADSVKGRFTISRDNAKNTVYLQMNSLKPEDTAVYYCAATGSSRYGRNYYSWGQGTQVTVSS | high polyreactivity
QVQLVESGGGLVQAGGILRLSCAASGFTLLPYAMGWYTQAPGKERELVAAISRRGVSTYYADSVKGRFTLSRDNAKNTVYLPMNSLNPQDTAVNYCAADSYSRATVQYEYWGQCTQVTVSS | high polyreactivity
QVQLVESGGGLVQAGGSLRLSCAASGRILYCYTMGWYRQAPGKERELVAGITTRGGNTYYADSVKGRFTISRDNAKNSVYLQMNSLKPEDTAVYYCAARFSGPARMDYWGQGTQVTVSS | low polyreactivity
QVQLVESGGGLVQAGGSLRLSCAASGSIFVTYAMGWYRQAPGKERELVASITGRGGSTYYADSVKGRFTISRDNAKNTVYLQMNSLKPEDTAVYYCAARVASRHGWHNYWGQGTQVSVSS | high polyreactivity
QLQLVESGGGLVQAGGRLRLTCAASGRTFPYYFMGWYRPAPGKERELVAAINSGGRTNYADSVKGLFTISRDNAKNTVYLQMNSLKPEDTAVYYCTKRGHPARLGYYYWGQGTQVTVSS | low polyreactivity
